Tested on: Klebsiella pneumoniae KPN+19-15
Assay type: cell-based
Settings: KPN+19-15
Protocol: The minimal inhibitory concentration (MIC) was determined by the broth microdilution method according to the recommended procedures of the Clinical and Laboratory Standards Institute (CLSI). An appropriate amount of the cyclic lipopeptide compounds prepared in Examples 1-120 and the reference standards were weighed and dissolved in sterile pure water. […]
Bridge positions count the residues as written; N and C are the ends. Square brackets hold non-standard residues; d marks the D form. Peptide text beside a SMILES is read from it. * marks the point of attachment. Heptanoyl(6-Me) = CC(C)CCCCC(=O)*; Sulfomethyl = O=S(=O)(O)C*; Octanoyl = CCCCCCCC(=O)*; Dab = NCC[C@H](N)C(=O)O; Dap = NC[C@H](N)C(=O)O
property.name: MIC (µg/mL)
Your answer is read as µg/mL, so omit the unit and give the number.

CCCCCCCC(=O)N[C@@H](CN)C(=O)N[C@H](C(=O)N[C@H](CO)C(=O)N[C@H]1CCNC(=O)[C@H]([C@@H](C)O)NC(=O)[C@H](CCN)NC(=O)[C@H](CCN)NC(=O)[C@H]([C@@H](C)O)NC(=O)[C@@H](Cc2ccccc2)NC(=O)[C@H](CCN)NC1=O)[C@@H](C)O [Compound 53] (Octanoyl-[Dap]T[dS][Dab][Dab][dF]T[Dab][Dab]T; lactam 4-C) ... 0.5

QUERY: Which MIC value belongs to CC(C)CCCCC(=O)N[C@@H](CCN)C(=O)N[C@H](C(=O)N[C@H](CO)C(=O)N[C@H]1CCNC(=O)[C@H]([C@@H](C)OCS(=O)(=O)O)NC(=O)[C@H](CCN)NC(=O)[C@H](CCN)NC(=O)[C@H]([C@@H](C)O)NC(=O)[C@@H](Cc2ccccc2)NC(=O)[C@H](CCN)NC1=O)[C@@H](C)O [Compound 106] ({Heptanoyl(6-Me)}-[Dab]T[dS][Dab][Dab][dF]T[Dab][Dab]T(Sulfomethyl); lactam 4-C) ?
RESULT: 0.125

###

Test system: Acinetobacter baumannii ABA19-1
Assay type: cell-based
Settings: ABA19-1
Bridge positions count the residues as written; N and C are the ends. Square brackets hold non-standard residues; d marks the D form. Peptide text beside a SMILES is read from it. * marks the point of attachment. Heptanoyl(6-Me) = CC(C)CCCCC(=O)*; Sulfomethyl = O=S(=O)(O)C*; dOrn = NCCC[C@@H](N)C(=O)O; Octanoyl = CCCCCCCC(=O)*; Orn = NCCC[C@H](N)C(=O)O; Dab = NCC[C@H](N)C(=O)O
property.name: MIC
Just the number plus its unit, please.

The cases that follow already have their MIC on record.
CCCCCCCC(=O)N[C@@H](CCN)C(=O)N[C@H](C(=O)N[C@@H](CCCN)C(=O)N[C@H]1CCNC(=O)[C@H]([C@@H](C)O)NC(=O)[C@H](CCN)NC(=O)[C@H](CCN)NC(=O)[C@H](CC(C)C)NC(=O)[C@@H](Cc2ccccc2)NC(=O)[C@H](CCN)NC1=O)[C@@H](C)O [Compound 48] (Octanoyl-[Dab]T[Orn][Dab][Dab][dF]L[Dab][Dab]T; lactam 4-C) ... 0.125 mg/L
CC(C)CCCCC(=O)N[C@@H](CCN)C(=O)N[C@H](C(=O)N[C@H](CO)C(=O)N[C@H]1CCNC(=O)[C@H]([C@@H](C)O)NC(=O)[C@H](CCN)NC(=O)[C@H](CCN)NC(=O)[C@H]([C@@H](C)O)NC(=O)[C@@H](Cc2ccccc2)NC(=O)[C@H](CCN)NC1=O)[C@@H](C)OCS(=O)(=O)O [Compound 104] ({Heptanoyl(6-Me)}-[Dab]T(Sulfomethyl)[dS][Dab][Dab][dF]T[Dab][Dab]T; lactam 4-C) ... 0.06 mg/L

Consider now this further compound.
QUERY: Which MIC value belongs to CC(C)CCCCC(=O)N[C@@H](CCN)C(=O)N[C@H](C(=O)N[C@H](CCCN)C(=O)N[C@H]1CCNC(=O)[C@H]([C@@H](C)O)NC(=O)[C@H](CCN)NC(=O)[C@H](CCN)NC(=O)[C@H](CC(C)C)NC(=O)[C@@H](Cc2ccccc2)NC(=O)[C@H](CCN)NC1=O)[C@@H](C)O [Compound 42] ({Heptanoyl(6-Me)}-[Dab]T[dOrn][Dab][Dab][dF]L[Dab][Dab]T; lactam 4-C) ?
RESULT: 0.125 mg/L
